# experimental_details: DMPK of D88 in mice (plasma)
# Type: in vivo, mouse
# test_context: male, CD-1, mouse; 1 mg/kg IV, plasma
# Experimental: Experiments were conducted by Aptuit (Verona) S.rl, an Evotec Company in Italy. Six weeks old male CD-1 mice were obtained from Charles River Laboratories, Italy. […] Healthy animals received IV 1.0 mg kg^−1 or SC administration of the 10.2 mg kg^−1 in homogeneous suspension in 0.5 % HPMC in water at the volume of 1.7 mL kg^−1. […] A first 20 µL aliquot were mixed with 80 µL of Hepes 0.1 N. A second 5 µL aliquot of plasma was added to a well plate for urea quantification without dilution. […]
quantity: Tmax (min)
Give the number; min is assumed, so skip it.

Please give measured Tmax of the following entry: N#Cc1ccc(NC(=O)C(F)C(=O)Nc2ccc(Oc3ccccc3)cc2)cc1 (stereo not shown) 4.8

----------
# experimental_details: DMPK of D88 in mice (plasma)
# Format: in vivo, mouse
# test_context: male, CD-1, mouse; 10 mg/kg SC, plasma
# Procedure: Experiments were conducted by Aptuit (Verona) S.rl, an Evotec Company in Italy. Six weeks old male CD-1 mice were obtained from Charles River Laboratories, Italy. […] Healthy animals received IV 1.0 mg kg^−1 or SC administration of the 10.2 mg kg^−1 in homogeneous suspension in 0.5 % HPMC in water at the volume of 1.7 mL kg^−1. […] A first 20 µL aliquot were mixed with 80 µL of Hepes 0.1 N. A second 5 µL aliquot of plasma was added to a well plate for urea quantification without dilution. […]
quantity: Cmax (ng/mL)
Field format: number, assumed ng/mL, no unit text.

Read off the recorded Cmax for N#Cc1ccc(NC(=O)C(F)C(=O)Nc2ccc(Oc3ccccc3)cc2)cc1 (stereo not shown) 1100

----------
# measured_on: MvfR protein (MvfRC87) (Pseudomonas aeruginosa, UniProt Q9I4X0)
# Construct: The MvfRC87 protein purified as in Xiao et. al., 2006; made in house
# Sequence (Q9I4X0 87-332): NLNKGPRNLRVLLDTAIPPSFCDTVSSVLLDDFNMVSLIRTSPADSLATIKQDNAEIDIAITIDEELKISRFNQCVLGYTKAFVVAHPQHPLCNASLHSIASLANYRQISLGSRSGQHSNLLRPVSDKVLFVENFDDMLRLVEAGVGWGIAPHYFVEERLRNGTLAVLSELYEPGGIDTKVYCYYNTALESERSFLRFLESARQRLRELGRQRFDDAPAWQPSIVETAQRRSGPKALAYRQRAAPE
# Type: binding
# test_context: SPR; Concentration 1.00E-08 M
quantity: Response Unit (RU)

N#Cc1ccc(NC(=O)CC(=O)Nc2cccc(Cl)c2)cc1 [D71]    2.4 RU
N#Cc1ccc(NC(=O)CC(=O)Nc2ccc(Br)cc2)cc1 [D42]    2.1 RU
N#Cc1ccc(NC(=O)CC(=O)Nc2ccc(C#N)cc2)cc1 [D43]    2.7 RU
Cc1cc(F)ccc1NCC(=O)Nc1ccc(C#N)cc1 [M17]    0.7 RU
N#Cc1ccc(NC(=O)CC(=O)Nc2ccc(Cl)cc2)cc1 [D41]    2.6 RU

Find the measured Response Unit (RU) of CC(C(=O)Nc1ccc(C#N)cc1)C(=O)Nc1ccc(C#N)cc1 [D80] and report it. 0.6 RU

Check the records and state Response Unit (RU) for N#Cc1ccc(NC(=O)CC(=O)Nc2ccc(Oc3ccccc3)cc2)cc1 [D57] 1 RU

Using the record for N#Cc1ccc(NC(=O)CC(=O)Nc2ccc(C#N)nc2)cc1 [D77] , state its measured Response Unit (RU). 0.7 RU

Look up and report measured Response Unit (RU) for this entry: N#Cc1ccc(NC(=O)CC(=O)Nc2ccc(C(F)(F)F)cc2)cc1 [D69] 1.7 RU

Return Response Unit (RU) for the following compound: N#Cc1ccc(NC(=O)C(F)C(=O)Nc2ccc(Oc3ccccc3)cc2)cc1 (stereo not shown) [D88] 0.4 RU

Data origin: paper PMC9428149
